tested on: Staphylococcus aureus; assay: Antimicrobial activity against Staphylococcus aureus ATCC 25923 after 18 hrs by broth microdilution method; assay type: functional
Residues, ends and D or L forms follow the SMILES beside them. *: point of attachment. Stearoyl = CCCCCCCCCCCCCCCCCC(=O)*; Palmitoyl = CCCCCCCCCCCCCCCC(=O)*; Lauroyl = CCCCCCCCCCCC(=O)*
Give MIC for every item shown.
One number for each entry, in µM.

CCCCCCCCCCCCCCCC(=O)N[C@@H](CCCNC(=N)N)C(=O)N[C@@H](Cc1c[nH]c2ccccc12)C(=O)N[C@@H](Cc1c[nH]c2ccccc12)C(N)=O (Palmitoyl-Arg-Trp-Trp-NH2); 16
CCCCCCCCCCCC(=O)N[C@@H](Cc1c[nH]c2ccccc12)C(=O)N[C@@H](CCCNC(=N)N)C(=O)N[C@@H](CCCNC(=N)N)C(N)=O (Lauroyl-Trp-Arg-Arg-NH2); 8
CCCCCCCCCCCCCCCCCC(=O)N[C@@H](CCCNC(=N)N)C(=O)N[C@@H](Cc1c[nH]c2ccccc12)C(=O)N[C@@H](CCCNC(=N)N)C(N)=O (Stearoyl-Arg-Trp-Arg-NH2); 16

Note: attention shifts to another entry.
What value of measured MIC is listed for CCCCCCCCCCCCCCCCCC(=O)N[C@@H](CCCNC(=N)N)C(=O)N[C@@H](CCCNC(=N)N)C(=O)N[C@@H](CCCNC(=N)N)C(N)=O (Stearoyl-Arg-Arg-Arg-NH2) ? 4
